# IC50 values compiled below
- TARGET OF ASSAY: UniProt P55085
- ASSAY DETAILS: Trypsin activated FLPR Ca2+ mobilization assay for PAR2 antagonist activity
- Assay type: cell-based
- CONDITIONS USED: 1321N1 cells stably expressing human PAR2; agonist Trypsin; Vorapaxar present to block PAR1; read-out: hPAR2 FLPR (Trypsin) IC50
Form entry: value (µM) — number only.

COMPOUND | IC50 (µM)
CCCc1c(C(O)c2ncc[nH]2)ccc(F)c1F (single isomer, unassigned) [Example 12] | 4.9
Cc1coc2c(F)ccc(C(O)c3ncc[nH]3)c12 (stereo not shown) | 3.27
OC(c1ncc[nH]1)c1ccc(F)cc1-c1cocn1 (stereo not shown) | 30.6
Cn1ccc2c(F)ccc(C(O)c3ncc[nH]3)c21 (stereo not shown) [Example 54] | 6.15

Ask: Please give the measured IC50 for this compound: OC(c1ncc[nH]1)c1ccc(F)cc1C1CCC1 (stereo not shown)
Reply: 7.85

Ask: Cool, now OC(c1ncc[nH]1)c1ccc(F)cc1C1CCCC1 (stereo not shown)
Reply: 9.57

Ask: Moving on to OC(c1ncc[nH]1)c1ccc(F)cc1C1=CCCC1 (stereo not shown)
Reply: 13.7

Ask: Similarly, OC(c1ncc[nH]1)c1ccc(F)cc1N1CC=CC1 (stereo not shown) [Example 17] ?
Reply: 8.75

Ask: Please do the same for Cc1ccc2c(F)ccc(C(O)c3ncc[nH]3)n12 (stereo not shown) as well.
Reply: 3.27

====

- TARGET OF ASSAY: PAR2 (Homo sapiens (Human), UniProt P55085)
- Sequence (P55085 26-397): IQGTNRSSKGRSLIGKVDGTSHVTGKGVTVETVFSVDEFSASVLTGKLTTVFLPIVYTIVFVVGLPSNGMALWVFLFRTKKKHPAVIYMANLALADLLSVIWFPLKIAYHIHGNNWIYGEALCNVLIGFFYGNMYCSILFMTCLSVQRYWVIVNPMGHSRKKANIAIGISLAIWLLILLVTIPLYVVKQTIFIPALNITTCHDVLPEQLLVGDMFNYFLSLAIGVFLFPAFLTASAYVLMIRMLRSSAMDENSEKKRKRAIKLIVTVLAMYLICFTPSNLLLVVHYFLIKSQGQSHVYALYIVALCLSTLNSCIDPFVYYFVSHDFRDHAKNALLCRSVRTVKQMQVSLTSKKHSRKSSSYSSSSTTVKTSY
- ASSAY DETAILS: Trypsin activated FLPR Ca2+ mobilization assay for PAR2 antagonist activity
- Type: cell-based
- CONDITIONS USED: 1321N1 cells stably expressing human PAR2; agonist Trypsin; Vorapaxar present to block PAR1; read-out: hPAR2 FLPR (Trypsin) IC50
pIC50: −log10 of the molar value.
REPORTED ENDPOINT: pIC50

Please review the following examples before continuing.
COMPOUND | pIC50
OC(c1ncc[nH]1)c1ccc(F)cc1N1CC=CC1 (single isomer, unassigned) [Example 19] | < 4.00
OC(c1ncc[nH]1)c1cccc2cc3n(c12)CCC3 (stereo not shown) | < 4.38

Ask: Consider the compound CCCc1c(C(O)c2ncc[nH]2)ccc(F)c1F (single isomer, unassigned) [Example 11] and give its measured pIC50.
Reply: < 4.11

Ask: Follow-up item: "CCCc1cc(F)ccc1[C@@H](O)c1ncc[nH]1"
Reply: < 4.39

====

- TARGET OF ASSAY: PAR2 (Homo sapiens (Human))
- ASSAY DETAILS: Trypsin activated FLPR Ca2+ mobilization assay for PAR2 antagonist activity
- Type: cell-based
- CONDITIONS USED: 1321N1 cells stably expressing human PAR2; agonist Trypsin; Vorapaxar present to block PAR1; read-out: hPAR2 FLPR (Trypsin) IC50
Some compounds, each annotated with its measured IC50.

Illustrative cases are given below, each with its answer.
COMPOUND | TARGET OF ASSAY | IC50
C[C@@H]1CCN(c2cc(F)ccc2C(O)c2ncc[nH]2)C1 (stereo partly shown) | PAR2 (Homo sapiens (Human)) | > 41.6 µM
Cn1ccc2c(F)ccc(C(O)c3ncc[nH]3)c21 (single isomer, unassigned) [Example 56] | PAR2 (Homo sapiens (Human)) | > 41.6 µM
OC(c1ncc[nH]1)c1ccc(F)cc1C12CCCC1C2 (stereo not shown) | PAR2 (Homo sapiens (Human)) | > 41 µM

Ask: Please look up its IC50: OC(c1ncc[nH]1)c1ccc(F)cc1N1CC[C@@H](F)C1 (stereo partly shown)
Reply: > 41.6 µM
